Reference source for all entries: PubChem BioAssay (NCI)

Listed compounds paired with reported TGI
Test system: UO-31 renal
Test: NCI tumour cell line growth inhibition, 48 h

Here's what some known entries look like.
[
  {
    "compound": "COc1ccc(C2C(=O)c3c(OC)cc(OC)cc3OC2c2cccnc2)cc1 (configuration not stated)",
    "TGI": "> 100 µM"
  },
  {
    "compound": "Br[C@@H]1[C@H]2c3nc4ccccc4nc3[C@@H]1C[C@H]2Br",
    "TGI": "> 100 µM"
  },
  {
    "compound": "Cc1cccc(N2C(=O)C3c4[nH]c5ccc(C)cc5c4C4CCC(C(C)(C)C)CC4C3C2=O)c1 (configuration not stated)",
    "TGI": "> 100 µM"
  },
  {
    "compound": "CCCCOC1OC(COC(=O)C(C)C)C(OC(=O)C(C)C)C(O)C1OC1OC(C)C(OC(=O)CCC)C(OC(=O)C(C)C)C1O (configuration not stated)",
    "TGI": "32.2 µM"
  },
  {
    "compound": "NC(=O)NC1C(C(=O)O)N(Cc2ccccc2)C(=O)N1Cc1ccccc1 (configuration not stated)",
    "TGI": "> 100 µM"
  }
]

# lookup: TGI of COCCOCCOCc1n(Cc2ccc3ccccc3n2)c2ccccc2[n+]1Cc1ccc2ccccc2n1 36.2 µM
